Give measured TGI for each item. Keep answers brief.
- Tested on: BT-549 breast
- METHOD: NCI tumour cell line growth inhibition, 48 h

Record summary for `Nc1nc2c(c(-c3ccc(F)cc3)n1)COC/C2=C\c1ccc(F)cc1` : reported TGI = > 100 µM

Record `Nc1ccc(N)c2c1C(=O)c1cccc([N+](=O)[O-])c1C2=O` . Reported TGI: > 31.2 µM

Short answer for Cn1c(=O)c(Oc2ccc(F)cc2F)cc2cnc(NC3CCC(O)CC3)nc21 (stereo not given) : TGI was > 25 µM

// field: TGI; key: Cc1ccc(C(=O)C2CC3(CCC2(O)c2ccc(C)cc2)CC(=O)Nc2ccccc2C3=O)cc1 (stereo not given) ; value = > 100 µM

Query `CCOC(=O)N/N=C(/N)Cc1ccc(Cl)cc1` yields TGI of > 100 µM

---

For each of the molecules below, state its TGI.
- Tested on: HCT-116 colon
- METHOD: NCI tumour cell line growth inhibition, 48 h

Noted TGI for `CCOC(=O)NC/C=C/CO` , tested on HCT-116 colon: > 100 µM

Let me check: CC(C)(C)OC(=O)NCCCCC1NC(=O)[C@@H]2Cc3c([nH]c4ccccc34)C(c3ccccc3)N2C1=O (stereo partly drawn) , system HCT-116 colon, measured TGI is > 100 µM

Lab entry: HCT-116 colon assay, molecule `Nc1c(/C=C/c2cc3cc(C4=NCCN4)ccc3o2)[nH]c2cc(C3=NCCN3)ccc12` , TGI = > 100 µM

For `Cc1ccc(S(=O)(=O)NCc2cccc([N+](=O)[O-])c2)cc1` on HCT-116 colon, measured TGI was > 100 µM

`C[C@@H](c1ccccc1)N(CC#N)[C@H]1CCC[C@]1(O)/C=C/c1ccc2c(c1)OCO2` tested on HCT-116 colon gave TGI: > 25 µM

// TGI (HCT-116 colon) for `O=C1NC2(CCCCC2)C2=C1CCCCC2` = > 100 µM

Measured TGI (HCT-116 colon), entry `CCOP(=O)(OCC)/C(C#N)=C(\C)c1ccco1` : > 10 µM

Readout TGI for `Nc1nc2c(ccc3ccccc32)[nH]1` , test system HCT-116 colon, was > 10 µM

---

Please respond with reported TGI for every item in the list.
- System: NCI-H522 lung
- METHOD: NCI tumour cell line growth inhibition, 48 h

get_value(item= `CNC(=O)N(C)C(=O)c1ccccc1C(=O)N(C)C(=O)NC` , readout=TGI) returns > 10 µM

TGI reported for this molecule `Cc1c(Cl)cc(C(C)(C)C)c(O)c1Cc1c(C)c(Cl)cc(C(C)(C)C)c1O` : 1.18 µM

For reference, reported TGI for COC(=O)C1=C(C)C(=O)C2(CCCCCC2C(=O)OC)C1 (stereo unspecified) stands at > 100 µM

Looking up `COc1ccc(S(=O)(=O)NCCCNc2nccc(-c3c(-c4ccc(F)cc4)nc4sccn34)n2)cc1` , I see its TGI listed as > 100 µM

# TGI (molecule: `O=C(/C=C/c1ccc(OCC(=O)N2CCN(c3ccccc3)CC2)cc1)c1ccccc1` ) is > 56.8 µM

Memo: `CC(C)[C@H](NC(=O)OCc1ccccc1)C(=O)N[C@H](/C=C/C(=O)OC(C)(C)C)CO` , reported TGI: > 100 µM

What the record says about COC(=O)C(NC(=O)c1ccccc1)c1ccc(OC)c(I)c1 (stereo unspecified) : TGI is > 100 µM

molecule `CC1=C(C(=O)OC(C)(C)C)C(c2ccc([N+](=O)[O-])cc2)C(C(=O)OC(C)(C)C)=C(C)N1` , TGI observed: 36.4 µM

`Nc1nc2c(ccc3ccccc32)[nH]1` has a reported TGI of > 10 µM

The reported TGI of the molecule `CCOC(=O)c1sc2nc(SC)nc3c2c1NCN3c1ccccc1Cl` was 52.7 µM

What the record says about `N#Cc1c(N)nc(N2CCOCC2)c(C#N)c1-c1ccc(Cl)cc1Cl` : TGI is 18.4 µM

Sure, the documented TGI for `Nc1nc2c(c(-c3ccc(F)cc3)n1)COC/C2=C\c1ccc(F)cc1` is 22.7 µM

Please fill in: TGI reported for `CCCSC1=N/C(=C\c2ccco2)C(=O)N1` = > 100 µM

Form: molecule = Cc1ccc(C)c(C(=O)CC2OC(O)C(Cl)C2Cl)c1 (stereo unspecified) ; TGI = 29.4 µM

According to the records, this molecule `CCOC(=O)NC/C=C/CO` displays TGI of > 100 µM

Reported TGI of `O=C1C[C@@]23CCC4(CC2=CCC[C@H]3O1)OCCO4` : > 100 µM

Consider `Cc1c(-c2ccc(N3CCc4cccc(C(=O)Nc5nc6ccccc6s5)c4C3)nc2C(=O)O)cnn1CC12CC3CC(CC(C3)C1)C2` . Its measured TGI is 28 µM

Item: `CCCNc1ncnc2c1cnn2C` | TGI: > 100 µM

Noted for CC(=O)OCC1OC(OC(C)=O)C(NC#N)C(OC(C)=O)C1OC(C)=O (stereo unspecified) : its TGI reads > 100 µM

get_value(item= `COc1ccc2c3c(c4cc(OC)c(OC)cc4c2c1)C[C@H]1CCCCN1C3` , readout=TGI) returns 0.000216 µM

Consider `CO[C@@H](c1ccccc1)[C@H](O)[C@@](O)(c1ccccc1)P(=O)(OC)OC` . Its measured TGI is > 100 µM
